assay_method_text: chemical genetic growth profiling, strain panel (AID 1159580);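 note: tested at 20 µM; growth read once vehicle control cultures reached saturation at 30 °C; lower values mean less growth of the strain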
experimental_conditions: S. cerevisiae deletion strains, growth OD, locus YDR477W, strain SNF1
The campaign covered roughly 5,500 compounds. About 2,000 (36%) were called active. Not shown: some 18% with an inconclusive outcome. Cut-off read from the data, not from the text of the source: active = normalized growth mostly below about 0.91 (no sharp cut-off); inconclusive = no clear call, values can overlap the other calls; inactive = mostly above about 0.92. This is one part of the list.
Outcomes: active, inactive

- molecule: "Nc1ccc(N2CCN(c3ccc(C(F)(F)F)cn3)CC2)nc1"
  label: "inactive"
- molecule: "N#C/C(=C\\C=C\\c1ccccc1)c1nc2ccccc2[nH]1"
  label: "inactive"
- molecule: "Cc1nc(C(F)(F)F)ccc1C(=O)Sc1nnc(-c2ccc(C(F)(F)F)nc2C)o1"
  label: "inactive"
- molecule: "CSC(SC)=C(C#N)C(=O)c1ccccc1Cl"
  label: "active"
- molecule: "N/C(=N/OC(=O)c1ccccc1Cl)c1ccc2nonc2c1"
  label: "inactive"
- molecule: "N#CC(C#N)=NNc1cc(C(F)(F)F)ccc1OCC(F)(F)F"
  label: "active"
- molecule: "Oc1ccc(-n2nnnc2SCc2ccc(OC(F)(F)F)cc2)cc1"
  label: "inactive"
- molecule: "O=C(Nc1ccc(Cl)cc1)c1csc([N+](=O)[O-])c1"
  label: "inactive"
- molecule: "CCOC(=O)C(O)(c1ccc(NC(=O)Nc2ccc(Cl)cc2)cc1)C(F)(F)F (configuration not stated)"
  label: "inactive"
- molecule: "CSc1nc(Sc2n[nH]c(-c3ccccc3)n2)cc(Sc2n[nH]c(-c3ccccc3)n2)n1"
  label: "inactive"
- molecule: "O=S(=O)(Nc1cc(-c2cccs2)nn1-c1ccc(I)cc1)c1cccc(F)c1"
  label: "inactive"
- molecule: "O=C(Nc1ccc(OC(F)(F)F)cc1)Nc1cncc(C(F)(F)F)c1"
  label: "inactive"
- molecule: "N#CC(C#N)=NNc1ccc(C(F)(F)F)cc1"
  label: "active"
- molecule: "CCCCCc1ccc(-c2nc(SCC(C)=O)n[nH]2)cc1"
  label: "inactive"
- molecule: "COc1ccc(/C(C#N)=C2C=C/C(=N/O)C(Cl)=C\\2)cc1"
  label: "inactive"
- molecule: "N#C/C(=C\\c1ccc(C(F)(F)F)cc1)c1ccc(O)cc1"
  label: "active"
- molecule: "O=C(Oc1ccc(C2SCCS2)cc1)c1cccs1"
  label: "inactive"
- molecule: "Cc1ccc(C(=O)Nc2ccc3ccccc3n2)cc1"
  label: "inactive"
- molecule: "FC(F)(F)c1ccc(NC(=S)Nc2ccc(C(F)(F)F)cc2Cl)c(Cl)c1"
  label: "inactive"
- molecule: "COC(=O)c1ccc(Oc2c(C(F)(F)F)oc3cc(O)ccc3c2=O)cc1"
  label: "inactive"
- molecule: "O=C1OC(Nc2ccccc2SCc2ccccc2Cl)c2ccccc21 (configuration not stated)"
  label: "inactive"
- molecule: "N#C/C(=N/Nc1ccc(Cl)cc1)C(N)=S"
  label: "active"
- molecule: "N#CC(C#N)=NNc1ccc(-n2ccc(C(F)(F)F)n2)cc1"
  label: "active"
- molecule: "O=C(NNc1c(Cl)cccc1Cl)c1ccc([N+](=O)[O-])o1"
  label: "inactive"
- molecule: "Cc1nn(Cc2cccc(C(=O)O/N=C(/N)c3ccc(Cl)cc3)c2)c(C)c1Br"
  label: "inactive"
- molecule: "NNC(=O)COc1ccc(C2SCCS2)cc1"
  label: "active"
- molecule: "N#C/C(=N/Nc1ccc(Cl)cc1)C(=O)C1CC1"
  label: "active"
- molecule: "COc1ccc(-c2cc(NS(=O)(=O)c3cccc(F)c3)n(-c3ccc(Cl)c(Cl)c3)n2)cc1"
  label: "inactive"
- molecule: "O=S(=O)(Nc1ccc(-n2nc(C(F)(F)F)cc2-c2cccs2)cc1)c1ccc(F)cc1"
  label: "inactive"
- molecule: "CC(C)(C)c1cc(C(=O)/C(C#N)=N\\Nc2ccc(Cl)cc2)no1"
  label: "active"
- molecule: "Cc1nc(C(F)(F)F)ccc1-c1nnc(SC(=O)c2ccc(Cl)cc2)o1"
  label: "inactive"
- molecule: "Cc1c(Cl)cccc1N=C1SCC(=O)N1Cc1ccco1"
  label: "inactive"
